Experiment: Solubility in water and organic solvents
Details: water
Counter-ions that a name gives are not always drawn.
quantity measured: Water solubility (in words)

Worked cases, answers included:
compound	result
O=C(O)c1cc2ccccc2s1 [Example 4, Arginine salt of TNCA]	water-soluble
O=C(O)c1cc2ccccc2s1 [Example 2]	water-soluble
O=C(O)c1cc2ccccc2s1 [Example 3, Ammonium salt of TNCA]	water-soluble
O=C(O)c1cc2ccccc2s1 [Example 6, Sodium salt of TNCA]	water-insoluble

Next up:
Entry O=C(O)c1cc2ccccc2s1 [Example 7] has what Water solubility (in words)?
water-insoluble

* * *

Assay: Acute toxicity (LD50) by oral route and by injection
Conditions: mouse, in vivo, po
quantity measured: LD50

Entry O=C(O)c1cc2ccccc2s1 has what LD50?
~1500 mg/kg
